Recorded AC50 by entry
Tested on: MALME3 melanoma viability, CellTiter-Glo luminescence, 24 h
Assay Summary: growth inhibition of MALME3 cells – cell-based, CellTiter-Glo, cherry-picked, orthogonal assay for MITF inhibitor project, dose response (AID 493191)

Worked set:
{"Compound": "CN(C)CC1CC/C(=C\\c2ccc(O)cc2)C1=O (stereo not given)", "System": "MALME3 melanoma viability, CellTiter-Glo luminescence, 24 h", "Assay Value": "25.9 µM"}
{"Compound": "O=C(N/N=C/c1ccc([N+](=O)[O-])o1)c1cc2ccccc2o1", "System": "MALME3 melanoma viability, CellTiter-Glo luminescence, 24 h", "Assay Value": "10.5 µM"}
{"Compound": "CC1CCCC(NCC(O)COC(c2ccc(F)cc2)c2ccc(F)cc2)C1C (stereo not given)", "System": "MALME3 melanoma viability, CellTiter-Glo luminescence, 24 h", "Assay Value": "20.5 µM"}
{"Compound": "CC1C/C(=C\\c2cccnc2)C(=O)/C(=C/c2cccnc2)C1 (stereo not given)", "System": "MALME3 melanoma viability, CellTiter-Glo luminescence, 24 h", "Assay Value": "3.9 µM"}
{"Compound": "Cc1cc(NC(=O)c2cncc(Br)c2)ccc1NC(=O)c1cc2ccccc2o1", "System": "MALME3 melanoma viability, CellTiter-Glo luminescence, 24 h", "Assay Value": "17 µM"}

Now consider the entry below.
Prompt: Indicate its recorded AC50; the compound in question is COc1ccc(Oc2cc(NC(=O)c3nn(C)cc3[N+](=O)[O-])cc([N+](=O)[O-])c2)cc1
Completion: 17.7 µM

====

System: MALME3 melanoma viability, CellTiter-Glo luminescence, 24 h
Assay Summary: growth inhibition of MALME3 cells – cell-based, CellTiter-Glo, cherry-picked, orthogonal assay for MITF inhibitor project, dose response (AID 493191)
Experimental Endpoint: AC50

{"Compound": "N=c1n(CC(=O)c2ccc([N+](=O)[O-])cc2)c2ccccc2n1Cc1ccc(Cl)cc1", "AC50": "17.2 µM"}
{"Compound": "Cc1ccc(C(=O)N/N=C/c2ccc([N+](=O)[O-])s2)cc1", "AC50": "22.6 µM"}
{"Compound": "Cc1ccc(C(=O)N/C(=C\\c2ccc(-c3ccc(Br)cc3)o2)C(=O)NCCCN(C)C)cc1", "AC50": "14.2 µM"}

Prompt: Indicate its recorded AC50; the compound in question is O=C(CNc1cccc2ccccc12)N/N=C/c1ccc([N+](=O)[O-])o1
Completion: 16.3 µM

Prompt: Indicate its recorded AC50; the compound in question is CS(=O)(=O)c1ccc(S(=O)CC(=O)OCc2ccccc2)c([N+](=O)[O-])c1 (configuration not stated)
Completion: 20 µM

Prompt: Indicate its recorded AC50; the compound in question is CCN(CC)CCNC(=O)c1ccc(NC(=O)c2cn(-c3ccccc3)nc2-c2cccs2)cc1
Completion: 17.8 µM

Prompt: Indicate its recorded AC50; the compound in question is N=c1n(Cc2ccc(Cl)cc2)c2ccccc2n1CC(O)COc1ccccc1 (configuration not stated)
Completion: 14.8 µM

====

Test system: MALME3 melanoma viability, CellTiter-Glo luminescence, 24 h
Assay Summary: growth inhibition of MALME3 cells – cell-based, CellTiter-Glo, cherry-picked, orthogonal assay for MITF inhibitor project, dose response (AID 493191)
Recorded AC50 by entry

Worked set:
{"Molecule": "O=C(/C=C/c1ccc(Cl)cc1)c1ccc([N+](=O)[O-])o1", "Assay Value": "24.5 µM"}
{"Molecule": "Cc1cc2ncn(/N=C/c3ccc([N+](=O)[O-])o3)c2cc1C", "Assay Value": "15.9 µM"}
{"Molecule": "O=C(c1ccccc1)c1cc(Cl)ccc1N1C(=O)C=CC1=O", "Assay Value": "9.06 µM"}

Prompt: Indicate its recorded AC50; the molecule in question is CCCOCc1ccc(O)c2ncccc12
Completion: 32.2 µM

Prompt: Indicate its recorded AC50; the molecule in question is Cc1ccc(C)c(NC(=O)/C(C#N)=C/c2cn(CC(=O)NCc3ccco3)c3ccccc23)c1
Completion: 18.6 µM

Prompt: Indicate its recorded AC50; the molecule in question is CN1CCN(C2=C(NS(=O)(=O)c3cccs3)C(=O)c3ccccc3C2=O)CC1
Completion: 14.6 µM

Prompt: Indicate its recorded AC50; the molecule in question is CCCC(=O)N1CCN(c2ccc(NC(=O)c3ccc([N+](=O)[O-])o3)cc2)CC1
Completion: 8.62 µM

Prompt: Indicate its recorded AC50; the molecule in question is c1ccc(CSc2nnc(-c3ccco3)n2Cc2ccco2)cc1
Completion: 26.4 µM

Prompt: Indicate its recorded AC50; the molecule in question is COc1ccc(-c2cc(-c3ccccc3)c(C#N)c(S(C)=O)n2)cc1 (stereo not given)
Completion: 23.8 µM

Prompt: Indicate its recorded AC50; the molecule in question is Cc1cc(C)cc(NC(=O)c2ccc([N+](=O)[O-])o2)c1
Completion: 17.9 µM

Prompt: Indicate its recorded AC50; the molecule in question is Cc1[nH]c2ccccc2c1C(=O)CCl
Completion: 27.6 µM

Prompt: Indicate its recorded AC50; the molecule in question is Oc1ccc(CNc2ccccc2F)c2cccnc12
Completion: 28.2 µM

Prompt: Indicate its recorded AC50; the molecule in question is Cc1ccccc1OCc1n(CC(=O)OC2CC(C)CCC2C(C)C)c2ccccc2[n+]1C (stereo not given)
Completion: 9.18 µM

====

Test system: MALME3 melanoma viability, CellTiter-Glo luminescence, 24 h
Assay Summary: growth inhibition of MALME3 cells – cell-based, CellTiter-Glo, cherry-picked, orthogonal assay for MITF inhibitor project, dose response (AID 493191)
Experimental Endpoint: AC50

Worked set:
{"Compound": "CCc1ccccc1NC(=O)CN(C)C(=O)Cn1ncc(Cl)c(Cl)c1=O", "AC50": "11.8 µM"}
{"Compound": "CCSCCc1nnc(NC(=O)Nc2cccc(C(F)(F)F)c2)s1", "AC50": "29 µM"}
{"Compound": "O=C(Cn1ncc(Cl)c(Cl)c1=O)N1CCN(Cc2ccccc2)CC1", "AC50": "8.57 µM"}
{"Compound": "Cc1ccc(NC(=O)CCl)cc1S(=O)(=O)N1CCCCCC1", "AC50": "18.1 µM"}
{"Compound": "CCN1CCN(C2=C(NS(=O)(=O)c3ccc(C)cc3)C(=O)c3ccccc3C2=O)CC1", "AC50": "11.9 µM"}

Prompt: Indicate its recorded AC50; the compound in question is O=C(N/N=C/c1ccc([N+](=O)[O-])s1)C(O)c1ccccc1 (stereo not drawn)
Completion: 22.7 µM

Prompt: Indicate its recorded AC50; the compound in question is Cc1cc(Sc2ncnc(N)c2[N+](=O)[O-])ncn1
Completion: 34 µM

Prompt: Indicate its recorded AC50; the compound in question is CN1CCN(c2ccccc2NC(=O)c2ccc([N+](=O)[O-])o2)CC1
Completion: 10 µM

====

Tested on: MALME3 melanoma viability, CellTiter-Glo luminescence, 24 h
Assay Summary: growth inhibition of MALME3 cells – cell-based, CellTiter-Glo, cherry-picked, orthogonal assay for MITF inhibitor project, dose response (AID 493191)
Experimental Endpoint: AC50

{"Compound": "Cc1ccc(C(O)(c2ccc(C)c(C)c2)C2CN3CCC2CC3)cc1C (stereo not drawn)", "AC50": "22.7 µM"}
{"Compound": "CCCC(=O)N1CCN(c2ccc(NC(=O)c3ccc([N+](=O)[O-])o3)cc2Cl)CC1", "AC50": "14.4 µM"}

Now consider the entry below.
Prompt: Indicate its recorded AC50; the compound in question is Cc1ccc(Cn2c(=N)n(CC(=O)c3ccc([N+](=O)[O-])cc3)c3ccccc32)cc1
Completion: 18.6 µM

====

Recorded AC50 by entry
Test system: MALME3 melanoma viability, CellTiter-Glo luminescence, 24 h
Assay Summary: growth inhibition of MALME3 cells – cell-based, CellTiter-Glo, cherry-picked, orthogonal assay for MITF inhibitor project, dose response (AID 493191)

Worked set:
{"Compound": "CCOC(=O)c1ccc(NC(=O)c2nc(S(=O)(=O)Cc3ccccc3)ncc2Cl)cc1", "System": "MALME3 melanoma viability, CellTiter-Glo luminescence, 24 h", "Experimental Endpoint": "AC50", "Assay Value": "4.47 µM"}
{"Compound": "N#CC(C#N)=C1C=CC=CN1/C(=C\\c1ccco1)C(=O)c1ccc(Br)cc1", "System": "MALME3 melanoma viability, CellTiter-Glo luminescence, 24 h", "Experimental Endpoint": "AC50", "Assay Value": "24.6 µM"}
{"Compound": "Cc1ccc2sc(N(CCCN(C)C)C(=O)c3ccc(S(=O)(=O)N(C)C4CCCCC4)cc3)nc2c1C", "System": "MALME3 melanoma viability, CellTiter-Glo luminescence, 24 h", "Experimental Endpoint": "AC50", "Assay Value": "18.1 µM"}
{"Compound": "CCOC(=O)CSC1=NC(=O)/C(=C/c2ccc(OC)cc2)S1", "System": "MALME3 melanoma viability, CellTiter-Glo luminescence, 24 h", "Experimental Endpoint": "AC50", "Assay Value": "3.6 µM"}
{"Compound": "CC1=CC2/C=C(\\C)CCC(O)C(O)/C=C/C(=O)C23C(=O)NC(CC(C)C)C3C1C (stereo not given)", "System": "MALME3 melanoma viability, CellTiter-Glo luminescence, 24 h", "Experimental Endpoint": "AC50", "Assay Value": "12.6 µM"}
{"Compound": "OCCNc1c2ccccc2nc2c(F)c(F)c(F)c(F)c12", "System": "MALME3 melanoma viability, CellTiter-Glo luminescence, 24 h", "Experimental Endpoint": "AC50", "Assay Value": "15.1 µM"}
{"Compound": "COc1cc(/C=N/NC(N)=O)c(Br)cc1OCC(=O)Nc1ccccc1C", "System": "MALME3 melanoma viability, CellTiter-Glo luminescence, 24 h", "Experimental Endpoint": "AC50", "Assay Value": "29.4 µM"}
{"Compound": "O=C(Nc1ccccc1N1CCN(C(=O)c2ccccc2)CC1)c1ccc([N+](=O)[O-])o1", "System": "MALME3 melanoma viability, CellTiter-Glo luminescence, 24 h", "Experimental Endpoint": "AC50", "Assay Value": "27.1 µM"}

Prompt: Under MALME3 melanoma viability, CellTiter-Glo luminescence, 24 h: report AC50 of CC(C)C(=O)N1CCN(c2ccc(NC(=O)c3ccc([N+](=O)[O-])o3)cc2)CC1 .
Completion: 12.8 µM

Prompt: Under MALME3 melanoma viability, CellTiter-Glo luminescence, 24 h: report AC50 of CCN1CCCC1CNC(=O)c1ccc2c(c1)NC(=O)/C(=C\c1ccc(C)cc1)S2 (stereo not given) .
Completion: 26 µM
